# maps each entry to its NF-kB reporter
# Test system: RAW-Dual (murine macrophage reporter line)
# ASSAY COMMENT: NF-kB reporter (SEAP) activity fold change vs agonist alone; higher = enhanced NF-kB activity
# RECORDED CONDITIONS: modulator concentration 10 µM; agonist: CpG ODN 1826 0.5 ug/mL
Just the number, please.

# count of solved cases: 4
CC(COc1ccccc1)N(CCCl)Cc1ccccc1.Cl (configuration not stated); 0.328
COc1cc2c(Oc3ccc(NC(=O)C4(C(=O)Nc5ccc(F)cc5)CC4)cc3F)ccnc2cc1OCCCN1CCOCC1; 0.179
COC1CCN(c2ccc(C(=O)N3CC(n4cc(COc5ccccc5)nn4)C3)cc2)C1 (configuration not stated); 1.17
CN(C)C(=O)COC(=O)Cc1ccc(OC(=O)c2ccc(NC(=N)N)cc2)cc1.CS(=O)(=O)O; 1.04

Ask | May I ask what NF-kB reporter has been recorded for CC(=O)OC1=C(O)C=CC2C(C)=CC(=O)OC12 (configuration not stated) ?
Reply | 0.954

Ask | Field request: NF-kB reporter | item: CC(=O)NC(CS)C(=O)O (configuration not stated)
Reply | 0.957

Ask | Name the reported NF-kB reporter value associated with the molecule O=C(NN=Cc1c(O)ccc2ccccc12)c1ccccc1
Reply | 1.48
